Just for reference, paper PMC12951562 is where these values come from.

- testedTarget: SHB (Homo sapiens, UniProt Q15464)
- Construct: made in house; host or cells: HEK293 (transient transfection), unpurified extract
- Sequence (Q15464 whole entry): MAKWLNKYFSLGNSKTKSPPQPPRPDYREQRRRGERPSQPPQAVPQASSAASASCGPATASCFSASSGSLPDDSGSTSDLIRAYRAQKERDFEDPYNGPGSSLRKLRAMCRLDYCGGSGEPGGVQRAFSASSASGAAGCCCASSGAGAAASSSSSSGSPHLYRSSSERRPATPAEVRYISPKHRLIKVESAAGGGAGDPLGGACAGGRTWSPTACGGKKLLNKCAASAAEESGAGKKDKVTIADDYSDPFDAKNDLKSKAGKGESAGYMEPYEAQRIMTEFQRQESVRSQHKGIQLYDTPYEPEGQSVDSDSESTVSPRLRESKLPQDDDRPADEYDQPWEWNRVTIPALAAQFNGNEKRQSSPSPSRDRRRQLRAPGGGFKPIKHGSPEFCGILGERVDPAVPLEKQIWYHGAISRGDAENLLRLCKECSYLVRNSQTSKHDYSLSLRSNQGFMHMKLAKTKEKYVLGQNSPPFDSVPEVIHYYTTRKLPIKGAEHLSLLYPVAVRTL
- test: biochemical
- Type: binding
- reportedConditions: read-out: percent of DMSO vehicle control
Non-standard residues stand in square brackets, D forms with d. Residues, ends and D or L forms follow the SMILES beside them. *: point of attachment. pY = N[C@@H](Cc1ccc(OP(=O)(O)O)cc1)C(=O)O; Caffeoyl = O=C(/C=C/c1ccc(O)c(O)c1)*
measuredProperty: remaining activity at 10 µM (%)
Numbers only, in %.

Go through the items and report each one's remaining activity at 10 µM.
1. NC(=O)CC[C@H](NC(=O)[C@@H]1CC[C@@H]2CCN(C(=O)CCCCCC#Cc3cccc4c3CN(C3CCC(=O)NC3=O)C4=O)C[C@H](NC(=O)c3cc4cc(C(F)(F)P(=O)(O)O)ccc4[nH]3)C(=O)N21)C(=O)NC(c1ccccc1)c1ccccc1 (stereo partly shown) [SD-36]
2. CC[C@H](C)[C@H](NC(=O)[C@H](CCC(=O)O)NC(=O)[C@H](CCC(=O)O)NC(=O)[C@H](Cc1ccc(OP(=O)(O)O)cc1)NC(=O)/C=C/c1ccc(O)c(O)c1)C(=O)N[C@@H](CCC(=O)O)C(=O)O [Caffeic acid-pYEEIE] (Caffeoyl-[pY]EEIE-OH)
3. CC(=O)N1CC[C@H]2CC[C@@H](C(=O)N[C@@H](CCC(N)=O)C(=O)NC(c3ccccc3)c3ccccc3)N2C(=O)[C@@H](NC(=O)c2cc3cc(C(F)(F)P(=O)(O)O)ccc3[nH]2)C1 [SI-109]
4. CC(=O)N[C@@H](Cc1ccc(CP(=O)(O)O)cc1)C(=O)NC1(C(=O)N[C@@H](CC(N)=O)C(=O)NCCCc2c(O)ccc3ccccc23)CCCCC1 [CGP78850]

A:
1: 87.7; 2: 1.8; 3: 129; 4: 97.4

---

Please provide measured remaining activity at 10 µM for the entries that follow.
- testedTarget: MIST (Homo sapiens)
- Construct: the DNA-tagged SH2 domain concentrations used in this study were <0.1 nM; made in house; host or cells: HEK293 (transient transfection, unpurified extract)
- Sequence (Q7Z7G1 309-419 limits assumed): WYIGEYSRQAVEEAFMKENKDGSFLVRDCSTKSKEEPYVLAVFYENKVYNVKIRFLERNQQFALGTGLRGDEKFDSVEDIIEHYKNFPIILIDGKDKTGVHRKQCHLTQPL
- test: biochemical
- Format: binding
- reportedConditions: primary screen, 10 μM; read-out: percent of DMSO vehicle control
One number for each entry, in %.

Below, each entry is followed by its recorded remaining activity at 10 µM result.
> print(dat)
                                inputsmiles  recordedresult
1  O=C(CCl)Nc1cccc(CNC(=O)[C@H](Cc2ccc(OP(=O)(O)O)cc2)NC(=O)Cc2ccc(F)cc2)c1             102
2  CC(C)(C)[C@H](NC(=O)/C=C/c1ccc(OP(=O)(O)O)cc1)C(=O)N1CCC[C@H]1C(=O)N(c1ccccc1)c1ccc(I)cc1             102
3  O=C(COc1ccc2cc(C(=O)Nc3ccccc3)ccc2c1)NCc1ccc(OP(=O)(O)O)c(OP(=O)(O)O)c1            96.8

For the next question, use this compound.
Q: Return remaining activity at 10 µM (reported value) for this compound: `C/C(=C\C(=O)N[C@H](C(=O)N1CCC[C@H]1C(=O)N(c1ccccc1)c1ccc(I)cc1)C(C)(C)C)c1ccc(OP(=O)(O)O)cc1`
A: 88.7

---

Exercise: for every item that follows, state its recorded remaining activity at 10 µM.
- testedTarget: HCK (Homo sapiens, UniProt P08631)
- Construct: the DNA-tagged SH2 domain concentrations used in this study were <0.1 nM; made in house; host or cells: HEK293 (transient transfection, unpurified extract)
- Sequence (P08631 144-241 limits assumed): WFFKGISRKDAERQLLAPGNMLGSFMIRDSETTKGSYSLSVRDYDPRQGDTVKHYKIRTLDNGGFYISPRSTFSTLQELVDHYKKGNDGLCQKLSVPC
- test: biochemical
- Type: binding
- reportedConditions: read-out: percent of DMSO vehicle control
Non-standard residues stand in square brackets, D forms with d. Residues, ends and D or L forms follow the SMILES beside them. *: point of attachment. pY = N[C@@H](Cc1ccc(OP(=O)(O)O)cc1)C(=O)O; Caffeoyl = O=C(/C=C/c1ccc(O)c(O)c1)*
Answers are plain numbers, in %.

Sample answers from the record:
compound	recordedResult
CC(=O)N[C@@H](Cc1ccc(CP(=O)(O)O)cc1)C(=O)NC1(C(=O)N[C@@H](CC(N)=O)C(=O)NCCCc2c(O)ccc3ccccc23)CCCCC1 [CGP78850]	60
CC(=O)N1CC[C@H]2CC[C@@H](C(=O)N[C@@H](CCC(N)=O)C(=O)NC(c3ccccc3)c3ccccc3)N2C(=O)[C@@H](NC(=O)c2cc3cc(C(F)(F)P(=O)(O)O)ccc3[nH]2)C1 [SI-109]	91.9
CC[C@H](C)[C@H](NC(=O)[C@H](CCC(=O)O)NC(=O)[C@H](CCC(=O)O)NC(=O)[C@H](Cc1ccc(OP(=O)(O)O)cc1)NC(=O)/C=C/c1ccc(O)c(O)c1)C(=O)N[C@@H](CCC(=O)O)C(=O)O [Caffeic acid-pYEEIE] (Caffeoyl-[pY]EEIE-OH)	0

Next up:
Q: Look up remaining activity at 10 µM of NC(=O)CC[C@H](NC(=O)[C@@H]1CC[C@@H]2CCN(C(=O)CCCCCC#Cc3cccc4c3CN(C3CCC(=O)NC3=O)C4=O)C[C@H](NC(=O)c3cc4cc(C(F)(F)P(=O)(O)O)ccc4[nH]3)C(=O)N21)C(=O)NC(c1ccccc1)c1ccccc1 (stereo partly shown) [SD-36] and report it.
A: 56.4

---

- testedTarget: APS (SH2B2) (Homo sapiens, UniProt O14492)
- Construct: the DNA-tagged SH2 domain concentrations used in this study were <0.1 nM; made in house; host or cells: HEK293 (transient transfection; unpurified extract)
- Sequence (O14492 417-515 limits assumed): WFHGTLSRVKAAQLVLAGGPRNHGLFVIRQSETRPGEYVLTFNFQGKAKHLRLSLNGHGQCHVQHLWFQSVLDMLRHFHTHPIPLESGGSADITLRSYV
- test: biochemical
- Format: binding
- reportedConditions: primary screen, 10 μM; read-out: percent of DMSO vehicle control
Give remaining activity at 10 µM for every item shown.

> print(dat)
                                inputsmiles             measuredproperty  recordedresult
1  O=C(CCl)Nc1cccc(CNC(=O)[C@H](Cc2ccc(OP(=O)(O)O)cc2)NC(=O)Cc2ccc(F)cc2)c1  remaining activity at 10 µM           94.2%
2  O=C(COc1ccc2cc(C(=O)Nc3ccccc3)ccc2c1)NCc1ccc(OP(=O)(O)O)c(OP(=O)(O)O)c1  remaining activity at 10 µM           64.6%
3  CC(C)(C)[C@H](NC(=O)/C=C/c1ccc(OP(=O)(O)O)cc1)C(=O)N1CCC[C@H]1C(=O)N(c1ccccc1)c1ccc(I)cc1  remaining activity at 10 µM           66.4%

Field: next compound
Q: Entry `C/C(=C\C(=O)N[C@H](C(=O)N1CCC[C@H]1C(=O)N(c1ccccc1)c1ccc(I)cc1)C(C)(C)C)c1ccc(OP(=O)(O)O)cc1` needs its remaining activity at 10 µM filled in; supply it.
A: 45.3%

---

- testedTarget: STAT3(S614R)-nonphosphorylated (Homo sapiens, UniProt P40763, S614R)
- Construct: made in house; host or cells: HEK293 (transient transfection), unpurified extract, dephosphorylated by endogenous phosphatases
- Sequence (P40763 whole entry S614R): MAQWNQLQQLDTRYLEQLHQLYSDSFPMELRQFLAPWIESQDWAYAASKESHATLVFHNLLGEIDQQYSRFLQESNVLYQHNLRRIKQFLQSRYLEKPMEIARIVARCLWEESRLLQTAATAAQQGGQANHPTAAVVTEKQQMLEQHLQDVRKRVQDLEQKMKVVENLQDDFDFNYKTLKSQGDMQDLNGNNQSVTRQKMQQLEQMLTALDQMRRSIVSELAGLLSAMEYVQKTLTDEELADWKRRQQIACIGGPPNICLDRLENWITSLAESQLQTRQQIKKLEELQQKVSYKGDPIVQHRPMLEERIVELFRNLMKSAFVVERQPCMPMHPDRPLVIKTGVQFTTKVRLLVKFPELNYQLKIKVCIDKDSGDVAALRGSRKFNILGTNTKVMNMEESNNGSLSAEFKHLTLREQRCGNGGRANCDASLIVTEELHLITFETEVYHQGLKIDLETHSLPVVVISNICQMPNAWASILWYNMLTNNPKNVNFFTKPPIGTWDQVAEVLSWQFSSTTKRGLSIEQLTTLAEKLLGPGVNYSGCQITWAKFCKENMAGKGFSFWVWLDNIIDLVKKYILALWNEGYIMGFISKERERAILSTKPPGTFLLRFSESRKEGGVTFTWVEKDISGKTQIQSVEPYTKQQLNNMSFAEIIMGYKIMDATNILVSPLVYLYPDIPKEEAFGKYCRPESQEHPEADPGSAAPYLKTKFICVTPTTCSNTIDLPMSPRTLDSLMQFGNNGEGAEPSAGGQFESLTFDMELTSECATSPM
- test: biochemical
- Format: binding
measuredProperty: Kd (nM)
Answers are plain numbers, in nM.

Q: Please report Kd with STAT3(S614R)-nonphosphorylated (Homo sapiens, UniProt P40763, S614R) for item `CC(=O)N1CC[C@H]2CC[C@@H](C(=O)N[C@@H](CCC(N)=O)C(=O)NC(c3ccccc3)c3ccccc3)N2C(=O)[C@@H](NC(=O)c2cc3cc(C(F)(F)P(=O)(O)O)ccc3[nH]2)C1` .
A: 5

---

Consider the following molecules; for each one, report its remaining activity at 10 µM.
- testedTarget: FYN (Homo sapiens, UniProt P06241)
- Construct: the DNA-tagged SH2 domain concentrations used in this study were <0.1 nM; made in house; host or cells: HEK293 (transient transfection; unpurified extract)
- Sequence (P06241 149-246 limits assumed): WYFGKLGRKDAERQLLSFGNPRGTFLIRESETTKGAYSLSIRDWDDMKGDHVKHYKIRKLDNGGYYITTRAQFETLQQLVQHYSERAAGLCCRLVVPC
- test: biochemical
- Type: binding
- reportedConditions: primary screen, 10 μM; read-out: percent of DMSO vehicle control

> print(dat)
                                inputsmiles  recordedresult
1  CC(C)(C)[C@H](NC(=O)/C=C/c1ccc(OP(=O)(O)O)cc1)C(=O)N1CCC[C@H]1C(=O)N(c1ccccc1)c1ccc(I)cc1           51.8%

Below are some molecules; for each one, tell me its remaining activity at 10 µM.
1. O=C(COc1ccc2cc(C(=O)Nc3ccccc3)ccc2c1)NCc1ccc(OP(=O)(O)O)c(OP(=O)(O)O)c1
2. O=C(CCl)Nc1cccc(CNC(=O)[C@H](Cc2ccc(OP(=O)(O)O)cc2)NC(=O)Cc2ccc(F)cc2)c1
3. C/C(=C\C(=O)N[C@H](C(=O)N1CCC[C@H]1C(=O)N(c1ccccc1)c1ccc(I)cc1)C(C)(C)C)c1ccc(OP(=O)(O)O)cc1

A:
["92.1%", "83.2%", "48.2%"]

---

- testedTarget: FES (Homo sapiens)
- Construct: the DNA-tagged SH2 domain concentrations used in this study were <0.1 nM; made in house; host or cells: HEK293 (transient transfection; unpurified extract)
- Sequence (P07332 460-549 limits assumed): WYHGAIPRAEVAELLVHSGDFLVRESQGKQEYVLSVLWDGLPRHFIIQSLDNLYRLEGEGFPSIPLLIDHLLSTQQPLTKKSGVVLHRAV
- test: biochemical
- Assay type: binding
- reportedConditions: read-out: percent of DMSO vehicle control
Non-standard residues stand in square brackets, D forms with d. Residues, ends and D or L forms follow the SMILES beside them. *: point of attachment. pY = N[C@@H](Cc1ccc(OP(=O)(O)O)cc1)C(=O)O; Caffeoyl = O=C(/C=C/c1ccc(O)c(O)c1)*
measuredProperty: remaining activity at 10 µM (%)
One number for each entry, in %.

Reference set, count: 2
compound	unitName	remaining activity at 10 µM
CC(=O)N1CC[C@H]2CC[C@@H](C(=O)N[C@@H](CCC(N)=O)C(=O)NC(c3ccccc3)c3ccccc3)N2C(=O)[C@@H](NC(=O)c2cc3cc(C(F)(F)P(=O)(O)O)ccc3[nH]2)C1	%	160
NC(=O)CC[C@H](NC(=O)[C@@H]1CC[C@@H]2CCN(C(=O)CCCCCC#Cc3cccc4c3CN(C3CCC(=O)NC3=O)C4=O)C[C@H](NC(=O)c3cc4cc(C(F)(F)P(=O)(O)O)ccc4[nH]3)C(=O)N21)C(=O)NC(c1ccccc1)c1ccccc1 (stereo partly shown)	%	46.3

Hi team, please reply with remaining activity at 10 µM for each item in this list.
1. CC[C@H](C)[C@H](NC(=O)[C@H](CCC(=O)O)NC(=O)[C@H](CCC(=O)O)NC(=O)[C@H](Cc1ccc(OP(=O)(O)O)cc1)NC(=O)/C=C/c1ccc(O)c(O)c1)C(=O)N[C@@H](CCC(=O)O)C(=O)O [Caffeic acid-pYEEIE] (Caffeoyl-[pY]EEIE-OH)
2. CC(=O)N[C@@H](Cc1ccc(CP(=O)(O)O)cc1)C(=O)NC1(C(=O)N[C@@H](CC(N)=O)C(=O)NCCCc2c(O)ccc3ccccc23)CCCCC1

A:
[2.2, 52]
